Each entry below carries its reported Flk Kinase % Inhibition (P.110).
- Test system: FLK-1 receptor
- Protocol notes: FLK-1 Assay (cellular/catalytic ELISA, VEGF-stimulated phosphotyrosine)
- Assay type: cell-based
- Design: concentration or dose not given beside the values
Test readout: Flk Kinase % Inhibition (P.110) (%)

> print(dat)
                                    compound  assay.value
 1  Cc1cc(O)cc(O)c1C=C1C(=O)Nc2c(Br)cc(Br)c(C)c21 [10720/H08]        −23.7
 2  O=C1Nc2ccc(I)cc2C1=Cc1ccc(O)c(Br)c1 [10734/B09]        −32.3
 3  Cc1c(Br)cc(Br)c2c1C(=Cc1cccc([N+](=O)[O-])c1)C(=O)N2 [10719/H10]         −0.7
 4  CNS(=O)(=O)c1ccc2c(c1)C(=Cc1ccc(C(C)(C)C)cc1)C(=O)N2 [10734/D10]         11.1
 5  Cc1c(Br)cc(Br)c2c1C(=Cc1cc(C(C)(C)C)c(OCc3ccccc3)c(C(C)(C)C)c1)C(=O)N2 [10733/H05]         17.7
 6  O=C1Nc2c(Br)cc(Br)cc2C1=Cc1ccccc1C(F)(F)F [10736/A03]          5.7
 7  CC(C)(C)c1ccc(C=C2C(=O)Nc3ccc(I)cc32)cc1 [10734/B10]         15.7
 8  COc1c(C(C)(C)C)cc(C=C2C(=O)Nc3c(Br)cc(Br)c(C)c32)cc1C(C)(C)C [10733/H04]         −8.5
 9  Cc1c(Br)cc(Br)c2c1C(=Cc1ccc(Cl)s1)C(=O)N2 [10721/H07]         −7.0
10  O=C1Nc2ccc(I)cc2C1=Cc1c(F)cccc1F [10735/B08]          1.6
11  O=C1Nc2c(Br)cc(Br)cc2C1=Cc1cccc(F)c1O [10734/A08]          0.1
12  Cc1c(Br)cc(Br)c2c1C(=Cc1ccc(Cl)c([N+](=O)[O-])c1)C(=O)N2 [10718/H08]         −0.5
13  O=C1Nc2ccc(I)cc2C1=Cc1ccccc1C(F)(F)F [10736/B03]         11.3
14  O=C1Nc2ccc(S(=O)(=O)Nc3ccc(C(F)(F)F)cc3)cc2C1=Cc1cc(Br)cc(Br)c1O [10734/E07]         27.9
15  Cc1c(Br)cc(Br)c2c1C(=Cc1cc([N+](=O)[O-])c(O)c(C(C)(C)C)c1)C(=O)N2 [10722/H02]          4.2
16  COc1cc(C)cc(O)c1C=C1C(=O)Nc2c(Br)cc(Br)c(C)c21 [10725/H06]         16.1
17  O=C1Nc2ccc(I)cc2C1=Cc1cccc(F)c1 [10736/B07]          4.0
18  Cc1c(Br)cc(Br)c2c1C(=Cc1c(F)cccc1C(F)(F)F)C(=O)N2 [10728/H09]          0.7
19  O=C1Nc2ccc(S(=O)(=O)Nc3ccc(C(F)(F)F)cc3)cc2C1=Cc1ccccc1F [10736/E08]         19.3
20  CCOc1cccc(C=C2C(=O)Nc3c(Br)cc(Br)c(C)c32)c1O [10734/H02]          0.5
21  Cc1c(Br)cc(Br)c2c1C(=Cc1ccc(F)c(F)c1)C(=O)N2 [10735/H03]          7.4
22  Cc1c(Br)cc(Br)c2c1C(=Cc1ccc(O)cc1O)C(=O)N2 [10723/H08]         −4.2
23  COc1c(O)ccc(C=C2C(=O)Nc3c(Br)cc(Br)c(C)c32)c1[N+](=O)[O-] [10733/H11]         29.1
24  Cc1cccc(C=C2C(=O)Nc3ccc(CCCl)cc32)c1 [10736/G04]         13.0
25  O=C1Nc2ccc(CCCl)cc2C1=Cc1ccc(Cl)cc1Cl [10735/G10]          6.8
26  Cc1ccc(C=C2C(=O)Nc3c(Br)cc(Br)c(C)c32)s1 [10717/H07]          1.1
27  Cc1c(Br)cc(Br)c2c1C(=Cc1nc3ccccc3n1C)C(=O)N2 [10721/H02]          5.5
28  Cc1ccc(C=C2C(=O)Nc3c(Br)cc(Br)cc32)cc1 [10736/A05]        −19.4
29  Cc1c(Br)cc(Br)c2c1C(=Cc1c[nH]c(=O)[nH]c1=O)C(=O)N2 [10731/H08]         31.4
